- System tested: T1, recombinant human domain 1-3His6 of the cation-independent mannose-6-phosphate receptor (human, UniProt P11717 41-467)
- T1 construct: Biotinylated (NHS-PEG4-biotin) for BLI; Glycosylated; also called hDom1-3His6; hCI-M6PRD1-D3
- Assay protocol: BLI exp 2, dissoc pH 5
Overview of reported koff across a group of binders:
Observed property: koff

>>> value_measured("anti-CI-M6PR VHH5 (VHH, His6-tagged; made in Pichia pastoris, later also in E. coli WK6) VHH: QVQLQESGGGLVQAGGSLKLSCAAAGRTFSRLAMGWFRQAPGKEREFVAAISENGDSIHYSDSVKGRFAVSRDNAKNTVYLQMNSLKPEDTAIYYCAADRAAYYCSGSGCYPSRAPAAASYDYWGQGTQVTVSS")
"0.033 s⁻¹"
>>> value_measured("anti-CI-M6PR VHH4 (VHH, His6-tagged; made in Pichia pastoris) VHH: QVQLQESGGGLVQAGGSLRLSCAASGRTFSNYVMGWFRQAPGKEREFVGSISQGGKMTYYPDSVKGRFTISRDNAKNTMYLQMDGLKPEDTAVYYCAVSRGYPMVRVSEVDYWGQGTQVTVSS")
"0.00729 s⁻¹"
>>> value_measured("anti-CI-M6PR VHH3 (VHH, His6-tagged; made in Pichia pastoris) VHH: QVQLQESGGGLVQPGGSLRLSCAAFGLNFKNFDMIWFRQAPGEERDIVAAISSSSSTIWYEDSVKGRFTISRDNAKNTVYLQMNSLKPEDTAVYYCAAALTSWRRPDYWGQGTQVTVSS")
"0.000369 s⁻¹"
